experimental.details: Lipophilicity, Log P of the compound
Format: physicochemical
measurement.conditions: octanol/water
Parameter logP: see the listing below.
Lab note: jot the number down without any unit.

1. FC[C@H](F)[C@H](F)Cc1c[nH]c2ccccc12 (racemic) = 2.7
2. FC(F)(F)CCc1c[nH]c2ccccc12 = 3.1
3. FC[C@@H](F)[C@H](F)Cc1c[nH]c2ccccc12 (racemic) = 2.7

Item under review: C[C@H](F)[C@H](F)Cc1c[nH]c2ccccc12 (racemic) . Reported logP?
2.8

Data request, read-out logP, for `FC(F)CCc1c[nH]c2ccccc12`
2.9

# get_value(readout='logP', item= FCC(F)CCc1c[nH]c2ccccc12 (stereo not drawn) )
2.8

* * *

experimental.details: Aqueous solubility of the compound at pH 6.5
Assay type: physicochemical
parameter.measured: solubility (µM)
Hi! Could you send only the number? It should be in µM, unit omitted.

1) CC(F)(F)CCc1c[nH]c2ccccc12 = 115
2) FCC(F)CCc1c[nH]c2ccccc12 (configuration not stated) = 277
3) CCC(F)(F)Cc1c[nH]c2ccccc12 = 182
4) FC(F)(F)CCc1c[nH]c2ccccc12 = 30
5) CC(F)(F)Cc1c[nH]c2ccccc12 = 820

Next:
Entry `CCCc1c[nH]c2ccccc12` has what solubility?
200

* * *

# microsomal CLint per record follows
experimental.details: Intrinsic clearance in human liver microsomes assessed per mg of protein
Type: ADME
measurement.conditions: read-out: CLH
Quick reminder: number only, in µL/min/mg, skip the unit.

Completed entries (count: 2):
1. FCC(F)CCc1c[nH]c2ccccc12 (stereo not drawn) = 245
2. CC(F)(F)CCc1c[nH]c2ccccc12 = 321

Which microsomal CLint reading was recorded for the compound FCC(F)Cc1c[nH]c2ccccc12 (stereo not drawn) ?
212

microsomal CLint lookup needed for `CC(F)(F)Cc1c[nH]c2ccccc12` , thanks.
508

* * *

experimental.details: Lipophilicity, Log P of the compound
Format: physicochemical
measurement.conditions: octanol/water
parameter.measured: logP
Hey, just send me the number, nothing else.

What value of logP has been recorded for this entry: `FCCCc1c[nH]c2ccccc12`
2.8

Name the reported logP value associated with the compound `CCCc1c[nH]c2ccccc12`
3.3

Can you look up the measured logP of FCC(F)Cc1c[nH]c2ccccc12 (configuration not stated) for me?
2.5

For the compound shown here, `CC(F)(F)CCc1c[nH]c2ccccc12` , give the reported logP.
3

Which logP value is on record for `CC(F)(F)Cc1c[nH]c2ccccc12` ?
2.8

Look up logP: `CCC(F)(F)Cc1c[nH]c2ccccc12`
3.1

Any idea what logP was measured for C[C@@H](F)[C@H](F)Cc1c[nH]c2ccccc12 (racemic) ?
2.8

* * *

In this section, each of the compounds is paired with its reported microsomal CLint.
experimental.details: Intrinsic clearance in human liver microsomes assessed per mg of protein
Type: ADME
measurement.conditions: read-out: CLH
Only the number, expressed in µL/min/mg, is required.

In the examples that follow, each entry is paired with its recorded microsomal CLint.
1) FC(F)(F)CCc1c[nH]c2ccccc12 = 410
2) FC(F)CCc1c[nH]c2ccccc12 = 372
3) CCC(F)(F)Cc1c[nH]c2ccccc12 = 271

Now take the following compound into account.
Returns the measured microsomal CLint for the input compound. Input: `CCCc1c[nH]c2ccccc12`
513
